All values here come from the supplement of paper PMC10065799.

Test system: AncSZ
assay.overview: phosphorylation enrichment, bacterial display (enrichment ratio); higher = better substrate or ligand; peptides without Tyr show the background;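 further: 11-residue human phosphosite peptides and single-mutation variants displayed on the E. coli surface, counted by deep sequencing, each peptide's frequency after selection divided by its frequency in the unselected input library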;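 further: frequency after pTyr selection over input frequency; kinase dosed for 20-30% of maximal phosphorylation in three min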
Param threshold (0.8) applies to phosphorylation enrichment; output rule met when value >= threshold, rule not met when value < threshold.

Examples with answers:
IPGMEYLVSII [TNC_Y1775_V1773M] :: rule met
PCPANYFAFKI [FAM3D_Y65] :: rule met
SKAYAYVHFDS [PABPC5_Y149_G146A] :: rule met

Could you now look at the following sequence, please?
Q: Entry RTTIHYNYMCN [TP53_Y234_C229R] : is its phosphorylation enrichment no less than 0.8?
Result: rule met

* * *

test.system: EPHB1 (UniProt P54762)
Sequence (P54762 whole entry, looked up): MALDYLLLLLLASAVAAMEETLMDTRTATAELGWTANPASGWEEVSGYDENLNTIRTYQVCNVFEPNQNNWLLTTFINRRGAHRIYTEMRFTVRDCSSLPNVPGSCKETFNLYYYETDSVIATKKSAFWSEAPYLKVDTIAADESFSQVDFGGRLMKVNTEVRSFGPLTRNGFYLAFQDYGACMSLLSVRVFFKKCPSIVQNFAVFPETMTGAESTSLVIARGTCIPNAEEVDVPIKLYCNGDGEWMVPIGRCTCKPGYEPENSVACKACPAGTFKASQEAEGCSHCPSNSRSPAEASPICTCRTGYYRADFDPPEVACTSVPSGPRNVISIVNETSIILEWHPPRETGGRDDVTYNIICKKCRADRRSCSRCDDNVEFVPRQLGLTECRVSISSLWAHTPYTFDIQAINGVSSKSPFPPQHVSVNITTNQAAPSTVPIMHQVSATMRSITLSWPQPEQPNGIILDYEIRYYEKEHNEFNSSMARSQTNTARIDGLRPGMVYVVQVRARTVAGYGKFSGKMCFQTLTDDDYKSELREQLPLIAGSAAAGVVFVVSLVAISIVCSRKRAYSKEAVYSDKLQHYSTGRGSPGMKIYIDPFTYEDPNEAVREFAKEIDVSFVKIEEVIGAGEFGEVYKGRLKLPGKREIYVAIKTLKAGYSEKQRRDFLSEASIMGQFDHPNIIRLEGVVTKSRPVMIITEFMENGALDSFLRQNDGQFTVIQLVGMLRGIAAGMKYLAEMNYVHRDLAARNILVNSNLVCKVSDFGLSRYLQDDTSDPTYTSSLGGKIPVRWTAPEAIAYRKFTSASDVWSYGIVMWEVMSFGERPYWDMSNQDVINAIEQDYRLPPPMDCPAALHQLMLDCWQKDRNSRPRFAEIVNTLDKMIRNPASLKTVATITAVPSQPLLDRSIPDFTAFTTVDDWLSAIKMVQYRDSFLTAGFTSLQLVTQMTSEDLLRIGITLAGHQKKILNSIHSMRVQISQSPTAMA
assay.overview: phosphorylation enrichment, bacterial display (enrichment ratio); higher = better substrate or ligand; peptides without Tyr show the background
Please mark T if the recorded phosphorylation enrichment is equal to or greater than 0.6, and F if it falls below.

Use the examples below as a reference point.
FLNSIYKSRDE [ROS1_Y2227] :: F
EFTAGYNVKFD [GPX4_Y123_A120T] :: F
KQLFAYKMLMA [TMC2_Y209_YF] :: F
CTTIHYNYMCI [TP53_Y234_N239I] :: T
RPSRQYATRDV [SCAMP3_Y35_L38R] :: F
LKRCQYVTEKV [ALDOA_Y204] :: T
IALSKYGRVKW [FGF6_Y186_R191W] :: F
SGVNKYSTAFG [GJB3_Y16] :: F
KSSDVYVSFDC [SORL1_Y136_Y141C_YF] :: T
AAILGYCHGEA [XPC_Y669_R671H] :: F

Q: Kindly determine if phosphorylation enrichment recorded for `AKIDGYITSFR` is above or exactly 0.6.
Result: F

Q: Decide: phosphorylation enrichment of PFIDSYEKDVA [PGM1_Y521_L516P_YF] >= 0.6?
Result: F

Q: Please indicate if the recorded phosphorylation enrichment for GQDLLYEDEDL [PACS1_Y303_F302L] meets or exceeds 0.6.
Result: T

Q: Exam item: decide whether the reported phosphorylation enrichment for HNELFYEEAEH [VANGL1_Y345_YF] is at least 0.6.
Result: T

Q: Decide: is the reported value of phosphorylation enrichment for SREALYNETDP [CACNA1A_Y794_M797T] equal to or greater than 0.6?
Result: T

Q: Does the sequence KYVKMYDNHQL [MYO9A_Y203] have recorded phosphorylation enrichment that is 0.6 or more?
Result: F

Q: Determine whether measured phosphorylation enrichment meets or exceeds 0.6 for KLIMEYLPFGS [JAK2_Y931_YF]
Result: F

Q: Answer whether phosphorylation enrichment of THEVRYVSAGQ [SLCO4A1_Y77] is greater than or equal to 0.6.
Result: F

Q: Please indicate if the recorded phosphorylation enrichment for KSEKVYTRHGV [FLOT1_Y56] meets or exceeds 0.6.
Result: F

Q: # check: phosphorylation enrichment of PRLMLYNPTTF [EGFR_Y270_P266R_YF] is greater than or equal to 0.6
Result: T

Q: Test whether the sequence LCHELYNTIRD [PBRM1_Y54_V49L] records phosphorylation enrichment of 0.6 or higher.
Result: T

Q: Has ITRDIYETDFF [INSR_Y1185_M1180I_YF] a recorded phosphorylation enrichment greater than or equal to 0.6?
Result: T

Q: Check the entry HEGKIYEYNQV [ZNF665_Y162] : does phosphorylation enrichment equal or exceed 0.6?
Result: T

Q: Assess whether reported phosphorylation enrichment for AAGGRYYGLVG [HARS1_Y363_D364Y] sits at 0.6 or higher.
Result: F

Q: Does the reported phosphorylation enrichment for QHVPDYRQNGY [PCDHGA1_Y890_V894G] fall at or above the 0.6 mark?
Result: F

Q: Textbook exercise: given the entry CETMEYLESKQ [BTK_Y511_A508T] , state whether its phosphorylation enrichment is greater than or equal to 0.6.
Result: T
